Please go through the items and note down their T/C.
System: BDF1 mice, Friend leukemia sc, tumor weight T/C
Experiment Summary: NCI In Vivo Anticancer Drug Screen. Data for tumor model Friend Virus Leukemia (Solid) (subcutaneous) in B6D2F1 (BDF1) mice
Conditions Used: endpoint: mean tumor weight; dose: 6.25 mg/kg/injection; schedule: Q01DX011 (ip); vehicle: carboxymethylcellulose (CMC); higher = larger tumour
Results filed as inconclusive are left out.

Quick check: T/C on BDF1 mice, Friend leukemia sc, tumor weight T/C, item CCC1/C=C/C=C/CC(C)C(O)C(C)(O)C(=O)C(C)C(O)C(C)C(=O)C(C)C(O)C(C)/C=C/C(=O)OC2C(C)C(CC1)OC1(OC(CC(C)O)C(C)CC1=O)C2C (stereo unspecified) (tested in a mixture with another compound) ? 46 % of control

Then this compound: CCc1nc(N)nc(N)c1-c1ccc(Cl)cc1 124 % of control

Then this compound: O=P1(N(CCCl)CCCl)NCCCO1 (stereo unspecified) 28 % of control

Then this compound: CCN(CC)CCNc1ccc(C)c2sc3ccccc3c(=O)c12 37 % of control

Then this compound: CSc1ncc(Br)c(Sc2nc(N)nc3nc[nH]c23)n1 81 % of control

Then this compound: CC(CCC(C)OS(C)(=O)=O)OS(C)(=O)=O (stereo unspecified) 56 % of control

---

System: BDF1 mice, Friend leukemia sc, tumor weight T/C
Experiment Summary: NCI In Vivo Anticancer Drug Screen. Data for tumor model Friend Virus Leukemia (Solid) (subcutaneous) in B6D2F1 (BDF1) mice
Conditions Used: endpoint: mean tumor weight; dose: 22.0 mg/kg/injection; schedule: Q01DX011 (ip); vehicle: carboxymethylcellulose (CMC); higher = larger tumour
Records with an inconclusive call do not appear.
Attribute Measured: T/C

Quick check: T/C on BDF1 mice, Friend leukemia sc, tumor weight T/C, item CC(C)CCSc1nc(N)nc2nc[nH]c12 ? 38 % of control

Then this compound: C=CCNc1ccc(C)cc1 60 % of control

Then this compound: Nc1nc(N)c2[nH]cnc2n1 92 % of control

Then this compound: O=C1C(NC(=O)C2CCCCC2)=C(N2CC2)C(=O)C(NC(=O)C2CCCCC2)=C1N1CC1 106 % of control

---

Tested on: BDF1 mice, Friend leukemia sc, tumor weight T/C
Experiment Summary: NCI In Vivo Anticancer Drug Screen. Data for tumor model Friend Virus Leukemia (Solid) (subcutaneous) in B6D2F1 (BDF1) mice
Conditions Used: endpoint: mean tumor weight; dose: 14.0 mg/kg/injection; schedule: Q01DX011 (ip); vehicle: carboxymethylcellulose (CMC); higher = larger tumour
Results filed as inconclusive are left out.
Attribute Measured: T/C

State the recorded T/C for this entry: Nc1nc2ncc(CNc3ccc(C(=O)NC(CCC(=O)O)C(=O)O)cc3)nc2c(=O)[nH]1 (centres undefined) 105 % of control

Then this molecule: S=c1nc[nH]c2nc[nH]c12 9 % of control

Then this molecule: CS(=O)(=O)OCCCl 67 % of control

Then this molecule: CS(=O)(=O)OCCCCOS(C)(=O)=O 91 % of control

---

Tested on: BDF1 mice, Friend leukemia sc, tumor weight T/C
Experiment Summary: NCI In Vivo Anticancer Drug Screen. Data for tumor model Friend Virus Leukemia (Solid) (subcutaneous) in B6D2F1 (BDF1) mice
Conditions Used: endpoint: mean tumor weight; dose: 500.0 mg/kg/injection; schedule: Q01DX011 (ip); vehicle: carboxymethylcellulose (CMC); higher = larger tumour
Records with an inconclusive call do not appear.
Please go through the items and note down their T/C.

State the recorded T/C for this entry: Nc1nc(SCc2ccccc2)c2ncn(C3CCCC3)c2n1 64 % of control

Then this compound: COc1cc(OC)c(OC)cc1/C=C\c1ccnc2ccccc12 52 % of control

Then this compound: OCC1OC(n2cnc3c(Cl)ncnc32)C(O)C1O (centres undefined) 115 % of control

Then this compound: c1ccc2c(c1)ccc1cc3c(ccc4ccccc43)cc12 29 % of control

Then this compound: OCCc1ccccc1 51 % of control

Then this compound: O=CCC(O)C(O)C(O)CO (centres undefined) 48 % of control

Then this compound: NC(CO)C(=O)O (centres undefined) 112 % of control

Then this compound: O=[N+]([O-])c1ccccc1CSc1ncnc2nc[nH]c12 2 % of control

Then this compound: O=C(Nc1ccc(C2=NCCN2)cc1)c1ccc(C(=O)Nc2ccc(C3=NCCN3)cc2)c(NC(=O)c2ccc(C(=O)Nc3cc(C(=O)Nc4ccc(C5=NCCN5)cc4)ccc3C(=O)Nc3ccc(C4=NCCN4)cc3)cc2)c1 115 % of control

Then this compound: CC1(C)CC(C)(c2ccccc2)c2ccccc21 (centres undefined) 25 % of control

Then this compound: CC(C)=CC1C(C(=O)OCc2ccc(C)cc2C)C1(C)C (centres undefined) 46 % of control

Then this compound: CCCCSc1nc(N)nc2c1ncn2CC(C)CC (centres undefined) 23 % of control

Then this compound: CC(C)CCS(=O)(=O)OCCCCOS(=O)(=O)CCC(C)C 39 % of control

Then this compound: O=C(Nc1ccc(C2=NCCN2)cc1)c1cc(Cl)cc(C(=O)Nc2ccc(C3=NCCN3)cc2)c1 114 % of control
